Conditions: 328.15 K; 101.33 kPa; Liquid; Vibrating tube method
We begin with a simple list: items and their reported mass density.

compound: C[N+](C)(C)CCO.N[C@@H](CO)C(=O)[O-] [2-hydroxy-N,N,N-trimethylethanaminium L-serinate]
unit.abbreviation: kg/m3
mass density: 1173.97

compound: C[N+](C)(C)CCO.NCCC(=O)[O-] [2-hydroxy-N,N,N-trimethylethanaminium β-alaninate]
unit.abbreviation: kg/m3
mass density: 1103.43

compound: C[N+](C)(C)CCO.NCC(=O)[O-] [2-hydroxy-N,N,N-trimethylethanaminium glycinate]
unit.abbreviation: kg/m3
mass density: 1128.46

compound: C[C@H](N)C(=O)[O-].C[N+](C)(C)CCO [2-hydroxy-N,N,N-trimethylethanaminium L-alaninate]
unit.abbreviation: kg/m3
mass density: 1095.54
